Tested on: COLO-829 (Melanoma);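 also: after 72 h of two-drug dosing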
run description: Bliss excess, mean over the matrix (fraction); higher = more synergy
Classification field: TRUE = Bliss excess at or over -0.02; FALSE = Bliss excess under -0.02.

Consider the following illustrative entries.
Asked: API: above_or_equal(metric=Bliss excess, cutoff=-0.02) for item CN(C)CCCOc1ccc(-c2ccc3ncc4c(c3c2)n(C2CCOCC2)c(=O)n4C)cn1 [AZD0156] + C=CCn1c(=O)c2cnc(Nc3ccc(N4CCN(C)CC4)cc3)nc2n1-c1cccc(C(C)(C)O)n1 [AZD1775] (first compound max 1 µM, partner max 1 µM)
Given back: FALSE

Asked: Has COc1nnc2ccc(N3CCC(c4ccc(OCCN5CCN(C)C(=O)[C@H]5C)cc4)CC3)nn12 [AZD5153] + Cn1cnc2c(F)c(Nc3ccc(Br)cc3Cl)c(C(=O)NOCCO)cc21 [Selumetinib] (first compound max 1 µM, 7x7, partner max 10 µM) a recorded Bliss excess greater than or equal to -0.02?
Given back: TRUE

Asked: Quick check, Bliss excess >= -0.02? COc1nnc2ccc(N3CCC(c4ccc(OCCN5CCN(C)C(=O)[C@H]5C)cc4)CC3)nn12 [AZD5153] + Cc1c2c(nn1C)CSCc1cc(n(C)n1)CSc1cc(c3ccccc3c1)OCCCc1c(C(=O)O)n(C)c3c-2c(Cl)ccc13 [AZD5991] (first compound max 1 µM, 7x7, partner max 1 µM)
Given back: TRUE

Asked: Kindly determine if Bliss excess recorded for Cc1c2c(nn1C)CSCc1cc(n(C)n1)CSc1cc(c3ccccc3c1)OCCCc1c(C(=O)O)n(C)c3c-2c(Cl)ccc13 [AZD5991] + C[C@@H](Nc1cc(F)cc(F)c1)c1cc(C(=O)N(C)C)cc2c(=O)cc(N3CCOCC3)oc12 [AZD8186] (first compound max 1 µM, 7x7, partner max 3 µM) is above or exactly -0.02.
Given back: FALSE

Asked: Quick check, Bliss excess >= -0.02? COc1nnc2ccc(N3CCC(c4ccc(OCCN5CCN(C)C(=O)[C@H]5C)cc4)CC3)nn12 [AZD5153] + CN(CC[C@H](CSC1=CC=CC=C1)NC2=C(C=C(C=C2)S(=O)(=O)NC(=O)C3=CC=C(C=C3)N4CCC(CC4)[C@H](C5=CC=CC=C5C6=CC=C(C=C6)Cl)O)S(=O)(=O)C(F)(F)F)CCO [AZD4320] (first compound max 1 µM, 7x7, partner max 1 µM)
Given back: FALSE

More entries:
Asked: Has Cn1cnc2c(F)c(Nc3ccc(Br)cc3Cl)c(C(=O)NOCCO)cc21 [Selumetinib] + C[C@@H]1COCCN1C2=NC(=NC(=C2)C3(CC3)[S@](=N)(=O)C)C4=C5C=CNC5=NC=C4 [AZD6738] (first compound max 10 µM, 7x7, partner max 10 µM) a recorded Bliss excess greater than or equal to -0.02?
Given back: TRUE

Asked: Determine whether this compound has Bliss excess no lower than -0.02: CN(CCO)CC[C@H](CSc1ccccc1)Nc1ccc(S(=O)(=O)NC(=O)c2ccc(N3CCC([C@@H](O)c4ccccc4-c4ccc(Cl)cc4)CC3)cc2)cc1S(=O)(=O)C(F)(F)F [AZD4320] + CN(C)CCCOc1ccc(-c2ccc3ncc4c(c3c2)n(C2CCOCC2)c(=O)n4C)cn1 [AZD0156] (first compound max 1 µM, 7x7, partner max 1 µM)
Given back: FALSE
